experiment: Maximum oral bioavailability in mouse liver microsomes based well stirred liver model at 1 uM measured after 2 to 60 mins in presence of NADP by LC-MS/MS analysis; type: ADME, Microsome; settings: read-out: Fmax
attribute measured: Fh at 1 µM (%)
Give your result in % as a bare value.

Consider the molecule shown here: C[C@@H]1COCCN1c1cc(-c2ccnn2C)c2ccnc(-c3ccn[nH]3)c2n1 What is its recorded Fh at 1 µM?
44

---

assay: Clearance in Beagle dog at 0.3 to 0.5 mg/kg, iv administered as bolus dose by LC-MS/MS analysis; type: ADME, organism-based, Canis lupus familiaris; settings: in vivo
attribute measured: clearance (mL/min/kg)
Provide only the numeric value, understood in mL/min/kg.

Which clearance value belongs to C[C@@H]1COCCN1c1cc(-c2ccnn2C)c2ccnc(-c3ccn[nH]3)c2n1 ?
13.2

---

experiment: Maximum oral bioavailability in dog liver microsomes based well stirred liver model at 1 uM measured after 2 to 60 mins in presence of NADP by LC-MS/MS analysis; type: ADME, Canis lupus familiaris, Microsome; conditions: read-out: Fmax
attribute measured: Fh at 1 µM (%)
Use % as the unit, but write only the number.

What does the record list as Fh at 1 µM for C[C@@H]1COCCN1c1cc(-c2ccnn2C)c2ccnc(-c3ccn[nH]3)c2n1 ?
54

---

molecular target: Serine/threonine-protein kinase ATR (Homo sapiens, UniProt Q13535); assay: Inhibition of ATR in human HT-29 cells assessed as reduction in histone H2AX phosphorylation measured after 30 mins by immunofluorescence cytometric assay; type: cell-based
Sequence (Q13535 whole entry): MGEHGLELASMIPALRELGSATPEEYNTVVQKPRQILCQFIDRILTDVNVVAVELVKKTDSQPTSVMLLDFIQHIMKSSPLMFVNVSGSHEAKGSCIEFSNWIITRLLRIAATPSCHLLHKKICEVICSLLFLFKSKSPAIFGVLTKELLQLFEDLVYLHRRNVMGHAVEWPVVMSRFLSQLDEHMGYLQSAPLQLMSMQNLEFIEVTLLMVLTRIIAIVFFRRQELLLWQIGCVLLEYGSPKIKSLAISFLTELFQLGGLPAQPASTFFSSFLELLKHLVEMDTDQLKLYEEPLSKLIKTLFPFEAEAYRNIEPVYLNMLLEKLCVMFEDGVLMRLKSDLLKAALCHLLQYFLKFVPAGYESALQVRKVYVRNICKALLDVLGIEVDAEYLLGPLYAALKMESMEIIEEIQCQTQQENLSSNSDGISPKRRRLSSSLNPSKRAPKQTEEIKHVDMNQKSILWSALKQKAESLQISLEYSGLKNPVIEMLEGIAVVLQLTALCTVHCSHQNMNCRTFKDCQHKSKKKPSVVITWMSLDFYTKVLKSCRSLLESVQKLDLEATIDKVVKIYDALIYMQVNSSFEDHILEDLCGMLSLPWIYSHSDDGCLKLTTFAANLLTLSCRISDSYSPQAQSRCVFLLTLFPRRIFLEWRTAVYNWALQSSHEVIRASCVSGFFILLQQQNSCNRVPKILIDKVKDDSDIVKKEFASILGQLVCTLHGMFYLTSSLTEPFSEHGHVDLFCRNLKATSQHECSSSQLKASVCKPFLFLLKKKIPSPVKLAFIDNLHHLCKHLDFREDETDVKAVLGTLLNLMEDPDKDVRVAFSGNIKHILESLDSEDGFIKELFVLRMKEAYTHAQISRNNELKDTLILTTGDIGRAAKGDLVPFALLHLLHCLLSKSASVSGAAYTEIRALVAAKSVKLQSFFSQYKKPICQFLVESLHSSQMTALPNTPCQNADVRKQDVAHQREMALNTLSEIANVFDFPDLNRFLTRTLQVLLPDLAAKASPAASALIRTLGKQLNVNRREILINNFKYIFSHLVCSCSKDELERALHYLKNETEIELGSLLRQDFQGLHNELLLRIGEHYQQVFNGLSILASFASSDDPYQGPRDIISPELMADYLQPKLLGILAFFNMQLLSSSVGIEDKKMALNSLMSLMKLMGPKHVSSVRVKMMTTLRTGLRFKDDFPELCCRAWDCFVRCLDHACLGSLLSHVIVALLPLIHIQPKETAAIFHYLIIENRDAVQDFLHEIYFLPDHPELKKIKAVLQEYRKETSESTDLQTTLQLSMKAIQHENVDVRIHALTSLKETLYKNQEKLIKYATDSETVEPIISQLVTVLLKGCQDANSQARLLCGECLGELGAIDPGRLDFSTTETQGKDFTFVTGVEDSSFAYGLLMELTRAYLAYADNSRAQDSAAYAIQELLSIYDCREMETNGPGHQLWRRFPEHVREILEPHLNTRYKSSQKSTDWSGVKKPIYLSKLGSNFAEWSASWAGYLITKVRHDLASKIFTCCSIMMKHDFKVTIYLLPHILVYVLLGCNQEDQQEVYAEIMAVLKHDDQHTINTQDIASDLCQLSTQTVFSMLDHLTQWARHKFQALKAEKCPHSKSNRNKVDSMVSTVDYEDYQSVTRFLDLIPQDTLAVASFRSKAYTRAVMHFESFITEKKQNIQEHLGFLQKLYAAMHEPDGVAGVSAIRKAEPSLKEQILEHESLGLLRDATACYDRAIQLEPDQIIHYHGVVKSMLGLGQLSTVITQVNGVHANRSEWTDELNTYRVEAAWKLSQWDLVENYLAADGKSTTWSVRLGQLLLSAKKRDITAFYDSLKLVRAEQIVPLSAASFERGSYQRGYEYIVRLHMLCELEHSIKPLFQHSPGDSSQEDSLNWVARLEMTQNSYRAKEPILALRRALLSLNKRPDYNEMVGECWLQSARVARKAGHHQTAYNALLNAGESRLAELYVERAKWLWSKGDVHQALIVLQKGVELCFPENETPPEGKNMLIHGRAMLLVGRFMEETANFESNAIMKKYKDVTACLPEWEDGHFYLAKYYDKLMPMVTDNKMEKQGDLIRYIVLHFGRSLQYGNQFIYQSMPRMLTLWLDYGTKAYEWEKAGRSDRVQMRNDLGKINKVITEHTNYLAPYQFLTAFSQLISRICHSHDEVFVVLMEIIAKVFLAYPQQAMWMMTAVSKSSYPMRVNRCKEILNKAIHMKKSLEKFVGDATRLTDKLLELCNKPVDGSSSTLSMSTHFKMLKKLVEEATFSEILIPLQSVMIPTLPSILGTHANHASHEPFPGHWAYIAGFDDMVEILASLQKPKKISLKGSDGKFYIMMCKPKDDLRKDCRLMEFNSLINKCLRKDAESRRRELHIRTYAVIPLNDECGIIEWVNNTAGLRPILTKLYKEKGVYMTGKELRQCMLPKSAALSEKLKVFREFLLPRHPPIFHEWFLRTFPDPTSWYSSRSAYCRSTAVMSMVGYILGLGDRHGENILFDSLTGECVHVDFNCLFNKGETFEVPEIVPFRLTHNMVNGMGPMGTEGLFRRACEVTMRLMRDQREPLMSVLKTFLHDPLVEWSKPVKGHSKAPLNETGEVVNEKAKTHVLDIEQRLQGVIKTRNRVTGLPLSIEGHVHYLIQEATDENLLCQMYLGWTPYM
attribute measured: pIC50
Note: pIC50 values are expressed as the negative base-10 logarithm of concentration in M.

Use these answered entries as a reference point.
compound=Cc1nccn1-c1cc(N2CCOC[C@H]2C)nc2c(-c3ccn[nH]3)nccc12 observed_value=7.12
compound=CC(C)Oc1cc(N2CCOCC2)nc2c(-c3ccn[nH]3)nccc12 observed_value=6.37
compound="Cc1nc(S(C)(=N)=O)ccc1-c1cc(N2CCOC[C@H]2C)nc2c(-c3ccn[nH]3)nccc12 (some centres undefined)" observed_value=6.58
compound=C[C@@H]1COCCN1c1cc(C#Cc2cccnc2)c2ccnc(-c3ccn[nH]3)c2n1 observed_value=6.64

# evaluate next
# get_value(readout='pIC50', item= CCP(=O)(CC)c1cc(N2CCOC[C@H]2C)nc2c(-c3ccn[nH]3)nccc12 )
6.54

---

target: Serine/threonine-protein kinase ATR (Homo sapiens, UniProt Q13535); experiment: Inhibition of 5'-TAMRA-labeled tracer 3',6'-bis(dimethylamino)-N-(4-{[2(1H-indol-4-yl)-6-(morpholin-4-yl)-pyrimidin-4-yl]amino}butyl)-3-oxo-3H-spiro[2-benzofuran-1,9'-xanthene]-5-carboxamide binding to recombinant human full-length N-terminal Flag-tagged ATR expressed in HEK293-6E cells co-expressing human full-length STREP-tagged ATRIP preincubated for 10 mins followed by tracer addition and measured after 30 mins by TR-FRET assay; type: cell-based
attribute measured: pIC50
# pIC50 is unitless: minus log10 of the molar concentration; print number only

Illustrative cases are given below, each with its answer.
molecule=CC(C)Oc1cc(N2CCOCC2)nc2c(-c3ccnn3C)nccc12 observed_value=4.90
molecule=C[C@@H]1COCCN1c1cc(C2(S(C)(=O)=O)CC2)c2ccnc(-c3ccn[nH]3)c2n1 observed_value=7.82
molecule=CC(C)Oc1cc(N2CCOCC2)nc2c(-c3cccc(C(N)=O)c3)nccc12 observed_value=4.76

Which pIC50 value belongs to CC(C)Oc1cc(N2CCOCC2)nc2c(C(N)=O)nccc12 ?
5.48

What about CC(C)Oc1cc(N2C[C@@H]3C[C@H]2CO3)nc2c(-c3ccn[nH]3)nccc12 ?
6.04

Thanks! And C[C@@H]1COCCN1c1cc(N(C)c2ccc(F)cc2)c2ccnc(-c3ccn[nH]3)c2n1 ?
8.05

Another: Cc1nc(S(C)(=N)=O)ccc1-c1cc(N2CCOC[C@H]2C)nc2c(-c3ccn[nH]3)nccc12 (stereo partly specified)
8.00

Item: C[C@@H]1COCCN1c1cc(N2CCN(S(C)(=O)=O)CC2)c2ccnc(-c3ccn[nH]3)c2n1
8.30

---

test: physchem; conditions: pH 6.5
attribute measured: solubility at 24 h

Data request, read-out solubility at 24 h, for CS(=O)(=O)c1ccc(-c2cc(N3CCOCC3)nc3c(-c4cc[nH]n4)nccc23)cc1
< 1 µg/mL

---

Below, each entry is listed alongside its reported pIC50.
molecular target: Serine/threonine-protein kinase ATR (Homo sapiens, UniProt Q13535); assay: Inhibition of ATR in human HT-29 cells assessed as reduction in histone H2AX phosphorylation measured after 30 mins by immunofluorescence cytometric assay; format: cell-based
Quick note: pIC50 means taking -log10 of the concentration in moles per liter.

Before answering, review these 4 worked examples.
molecule=CC(C)Oc1cc(N2CCOC[C@H]2C)nc2c(-c3ccn[nH]3)nccc12 study_target="Serine/threonine-protein kinase ATR (Homo sapiens, UniProt Q13535)" observed_value=6.81
molecule=CCS(=O)(CC)=Nc1cc(N2CCOC[C@H]2C)nc2c(-c3ccn[nH]3)nccc12 study_target="Serine/threonine-protein kinase ATR (Homo sapiens, UniProt Q13535)" observed_value=7.52
molecule=C[C@@H]1COCCN1c1cc(N(C)c2ccc(F)cc2)c2ccnc(-c3ccn[nH]3)c2n1 study_target="Serine/threonine-protein kinase ATR (Homo sapiens, UniProt Q13535)" observed_value=7.15
molecule=C[C@@H]1COCCN1c1cc(N2CCN(S(C)(=O)=O)CC2)c2ccnc(-c3ccn[nH]3)c2n1 study_target="Serine/threonine-protein kinase ATR (Homo sapiens, UniProt Q13535)" observed_value=7.23

Which pIC50 is listed for C[C@@H]1COCCN1c1cc(-c2cnc3n2CCC3)c2ccnc(-c3ccn[nH]3)c2n1 ?
7.09

---

// reported pIC50 for each item listed
target: Serine/threonine-protein kinase ATR (Homo sapiens); assay: Inhibition of ATR in human HT-29 cells assessed as reduction in histone H2AX phosphorylation measured after 30 mins by immunofluorescence cytometric assay; format: cell-based
Schema: pIC50 number; meaning minus log10 of the concentration expressed in molar units.

Take a look at these entries with their results.
molecule=C[C@@H]1COCCN1c1cc(-c2cccnc2F)c2ccnc(-c3ccn[nH]3)c2n1 study_target="Serine/threonine-protein kinase ATR (Homo sapiens)" observed_value=7.36
molecule=CS(=O)(=O)c1ccc(-c2cc(N3CCOCC3)nc3c(-c4cc[nH]n4)nccc23)cc1 study_target="Serine/threonine-protein kinase ATR (Homo sapiens)" observed_value=6.42

Form entry - test system: Serine/threonine-protein kinase ATR (Homo sapiens); read-out: pIC50; compound: C[C@@H]1COCCN1c1cc(C2(S(C)(=O)=O)CC2)c2ccnc(-c3ccn[nH]3)c2n1
7.07

---

target: Serine/threonine-protein kinase ATR (Homo sapiens, UniProt Q13535); assay: Inhibition of 5'-TAMRA-labeled tracer 3',6'-bis(dimethylamino)-N-(4-{[2(1H-indol-4-yl)-6-(morpholin-4-yl)-pyrimidin-4-yl]amino}butyl)-3-oxo-3H-spiro[2-benzofuran-1,9'-xanthene]-5-carboxamide binding to recombinant human full-length N-terminal Flag-tagged ATR expressed in HEK293-6E cells co-expressing human full-length STREP-tagged ATRIP preincubated for 10 mins followed by tracer addition and measured after 30 mins by TR-FRET assay; assay type: cell-based
Reported IC50 by item:
Record the value in µM, omitting the unit from your answer.

molecule=CC(C)Oc1cc(N2CCOCC2)nc2c(-c3cn[nH]c3)nccc12 units_text=µM observed_value=3.69
molecule=CC(C)Oc1cc(N2CCO[C@@H](C)C2)nc2c(-c3ccn[nH]3)nccc12 units_text=µM observed_value=1.97
molecule=CC(C)Oc1cc(N2C3CCC2COC3)nc2c(-c3ccn[nH]3)nccc12 units_text=µM observed_value=0.31

Provide value of IC50 for this record tested with Serine/threonine-protein kinase ATR (Homo sapiens, UniProt Q13535): COc1cccc(-c2nccc3c(OC(C)C)cc(N4CCOCC4)nc23)n1
13.2

What about CC(C)Oc1cc(N2CCO[C@H](C)C2)nc2c(-c3ccn[nH]3)nccc12 ?
1.5

---

biological target: Serine/threonine-protein kinase ATR (Homo sapiens); assay: Inhibition of 5'-TAMRA-labeled tracer 3',6'-bis(dimethylamino)-N-(4-{[2(1H-indol-4-yl)-6-(morpholin-4-yl)-pyrimidin-4-yl]amino}butyl)-3-oxo-3H-spiro[2-benzofuran-1,9'-xanthene]-5-carboxamide binding to recombinant human full-length N-terminal Flag-tagged ATR expressed in HEK293-6E cells co-expressing human full-length STREP-tagged ATRIP preincubated for 10 mins followed by tracer addition and measured after 30 mins by TR-FRET assay; type: cell-based
pIC50: −log10 of the molar value.
Label Criterion met when pIC50 is at or above 6; otherwise label Criterion not met.

compound=COC1(C)CN(c2cc(OC(C)C)c3ccnc(-c4ccn[nH]4)c3n2)C1 group_label="Criterion not met"
compound=CC(C)Oc1cc(N2CCOCC2)nc2cnccc12 group_label="Criterion not met"
compound=CC(C)Oc1cc(N2CC(F)(F)OC(F)(F)C2)nc2c(-c3ccn[nH]3)nccc12 group_label="Criterion not met"
compound=CNC(=O)c1nccc2c(OC(C)C)cc(N3CCOCC3)nc12 group_label="Criterion not met"
compound=CC(C)Oc1cc(N2CCOCC2)nc2c(-c3cccnc3)nccc12 group_label="Criterion not met"

// inclusive: pIC50 at least 6? input: Cc1nccn1-c1cc(N2CCOC[C@H]2C)nc2c(-c3ccn[nH]3)nccc12
Criterion met

Moving on to Cc1cn[nH]c1-c1nccc2c(OC(C)C)cc(N3CCOCC3)nc12
Criterion not met

Also, CC(C)Oc1cc(N2CCOCC2(C)C)nc2c(-c3ccn[nH]3)nccc12 please.
Criterion not met
